For each of the molecules below, state its Ki.
Write the answer as a number in nM, unit excluded.

For CC1CCN(C(=O)N(Cc2cccc(C(=N)N)c2)NS(=O)(=O)c2ccc3ccccc3c2)CC1 on UniProtKB P00760, measured Ki was 112

For N/C(=N\O)c1cccc(CN(NS(=O)(=O)c2ccc3ccccc3c2)C(=O)N2CCCCCC2)c1 [drawing 45] on UniProtKB P00760, measured Ki was 32200

For N=C(N)c1cccc(CN(NS(=O)(=O)c2ccc3ccccc3c2)C(=O)N2CCCCCC2)c1 [drawing 46] on UniProtKB P00760, measured Ki was 143

----------
For each of the molecules below, state its melting point.

The molecule listed as COc1ccc2cc(S(=O)(=O)NN(Cc3cccc(/C(N)=N/O)c3)C(=O)N3CCCCCC3)ccc2c1 [Example 23] has a reported melting point of 173 to 175 °C

The molecule listed as COc1ccc2cc(S(=O)(=O)NN(Cc3cccc(C(=N)N)c3)C(=O)N3CCC(C)CC3)ccc2c1.Cl has a reported melting point of 151 to 154 °C

The molecule listed as CC1CCCCN1C(=O)N(Cc1cccc(/C(N)=N/O)c1)NS(=O)(=O)c1ccc2ccccc2c1 (stereo not shown) [Example 13] has a reported melting point of 101 to 103 °C

The molecule listed as COc1ccc2cc(S(=O)(=O)NN(Cc3cccc(/C(N)=N/O)c3)C(=O)N3CCCCC3C)ccc2c1 (stereo not shown) [Example 15] has a reported melting point of 172 to 175 °C

The molecule listed as COc1ccc2cc(S(=O)(=O)NN(Cc3cccc(/C(N)=N/O)c3)C(=O)N3CCC(C)CC3)ccc2c1 [Example 17] has a reported melting point of 154 to 156 °C

The molecule listed as COc1ccc2cc(S(=O)(=O)NN(Cc3cccc(C(=N)N)c3)C(=O)N3CCCCCC3)ccc2c1.Cl has a reported melting point of 151 to 154 °C

The molecule listed as Cl.N=C(N)c1cccc(CN(NS(=O)(=O)c2ccc3ccccc3c2)C(=O)N2CCCCCC2)c1 has a reported melting point of 151 to 154 °C

----------
test.target: human thrombin (Homo sapiens, UniProt P00734)
Construct: Human thrombin (308 NIH; Sigma); purchased Sigma
protocol.summary: Determination of thrombin Ki (chromogenic substrate S-2238)
Format: biochemical
test.parameters: text comparison of SI 20025 compound with compound of the present invention
For each of the compounds below, state its Ki.
Write the answer as a number in nM, unit excluded.

The compound listed as N=C(N)Cc1ccc(CN(NS(=O)(=O)c2ccc3ccccc3c2)C(=O)N2CCCCCC2)cc1 has a reported Ki of 5

The compound listed as N=C(N)c1ccc(CN(NS(=O)(=O)c2ccc3ccccc3c2)C(=O)N2CCCCCC2)cc1 [compound a, reference compound] has a reported Ki of 32

----------
test.target: human thrombin (Homo sapiens, UniProt P00734)
Construct: Human thrombin (308 NIH; Sigma); purchased Sigma
protocol.summary: Determination of thrombin Ki (chromogenic substrate S-2238)
Assay type: biochemical
test.parameters: human thrombin, S-2238, 25° C.
metric.name: Ki (nM)
Write the answer as a number in nM, unit excluded.

The compound listed as CC1CCN(C(=O)N(Cc2cccc(C(=N)N)c2)NS(=O)(=O)c2ccc3ccccc3c2)CC1 has a reported Ki of 4

The compound listed as CC1CCN(C(=O)N(Cc2cccc(C(=N)NO)c2)NS(=O)(=O)c2ccc3ccccc3c2)CC1 has a reported Ki of 469

The compound listed as N/C(=N\O)c1cccc(CN(NS(=O)(=O)c2ccc3ccccc3c2)C(=O)N2CCCCCC2)c1 [drawing 45] has a reported Ki of 594

The compound listed as COc1ccc2cc(S(=O)(=O)NN(Cc3cccc(C(=N)N)c3)C(=O)N3CCC(C)CC3)ccc2c1 has a reported Ki of 11

The compound listed as COc1ccc2cc(S(=O)(=O)NN(Cc3cccc(C(=N)N)c3)C(=O)N3CCCCCC3)ccc2c1 has a reported Ki of 9

The compound listed as N=C(N)c1cccc(CN(NS(=O)(=O)c2ccc3ccccc3c2)C(=O)N2CCCCCC2)c1 [drawing 46] has a reported Ki of 5

----------
For each of the compounds below, state its Ki trypsin/Ki thrombin.
test.target: trypsin / thrombin
protocol.summary: Selectivity to thrombin (ratio of Ki for trypsin to Ki for thrombin)
Format: biochemical

The compound listed as COc1ccc2cc(S(=O)(=O)NN(Cc3cccc(C(=N)NO)c3)C(=O)N3CCCCCC3)ccc2c1 has a reported Ki trypsin/Ki thrombin of 29

The compound listed as N/C(=N\O)c1cccc(CN(NS(=O)(=O)c2ccc3ccccc3c2)C(=O)N2CCCCCC2)c1 [drawing 45] has a reported Ki trypsin/Ki thrombin of 54

The compound listed as CC1CCN(C(=O)N(Cc2cccc(C(=N)NO)c2)NS(=O)(=O)c2ccc3ccccc3c2)CC1 has a reported Ki trypsin/Ki thrombin of 146

The compound listed as COc1ccc2cc(S(=O)(=O)NN(Cc3cccc(C(=N)N)c3)C(=O)N3CCCCCC3)ccc2c1 has a reported Ki trypsin/Ki thrombin of 5.84
